B1: Zinc finger homeobox protein 4, residues 2086 to 2141; numbered along this chain, Q86UP3 (parent)
chain: RPRTRITDDQLKILRAYFDINNSPSEEQIQEMAEKSGLSQKVIKHWFRNTLFKERQ

# Variants of: B1
# assay explanation: abundance fitness (aPCA) (normalised: wild type 0, dead -1); higher = more abundant; growth selection in yeast, the domain comes from the species named
# details: Homo sapiens
value kind: abundance fitness
Numbers only.

These solved cases illustrate the format of a correct answer.
| mutant | abundance fitness |
| --- | --- |
| R55L | -0.091 |
| S39M | 0.217 |
| M32V | -0.276 |

For every listed record, write down its abundance fitness.
1. R55H
2. I29E

(A)
1. 0.256
2. -0.025
